meta.source: the supplement of paper PMC9170038

- Tested on: MS2 coat protein
- Assay Remarks: apparent KD of MS2 coat protein; designed switch direction (-1 OFF switch, 1 ON switch): -1; higher = weaker reporter binding
- Condition Set: input ligand: none
So I've got a bunch of sequences here, and I need their apparent KD of MS2 coat protein values.
Expressed in nM, but write only the number.

Tell me reported apparent KD of MS2 coat protein for AACCUGGCUGUUCACAGGAACAUGAGGAUCACCCAUGUCGUGGGUAGAUCCCUCCCUGGGAAAUCUGCUCGUCUUAU [Cac Sensor turn off v1 sub13] (Eterna round: R97, puzzle: Sensor, turn-off variant 1) , tested with MS2 coat protein. 34.2

Tell me reported apparent KD of MS2 coat protein for CAGGAACCAGCAGGAUAUGUGCGGCUGCUAACGUGAACCAACAUGAGGAUCACCCAUGUAGGCACGCAGAAGGGCUCAGCCUGC [Orgevebe] (Eterna round: R96, puzzle: Exclusion NG 2) , tested with MS2 coat protein. 13.5

Tell me reported apparent KD of MS2 coat protein for AUUCAACAUGAGGAUCACCCAUGUGAGGAUAUGCGAGUGCAGACUUCGGUUUGAUAGAGCAGAAGGCGCAGGUA [EX1 #13] (Eterna round: R97, puzzle: Exclusion 1) , tested with MS2 coat protein. 30.8

Tell me reported apparent KD of MS2 coat protein for GCUGGUCAAGGAUAUACAUGAGGAUCACCCAUGUGAUUAGCAGUCCUCGGACUGCAAUGUAGAAGGUGACCAGC [E3/2-C1] (Eterna round: R97, puzzle: Exclusion 3) , tested with MS2 coat protein. 308

Tell me reported apparent KD of MS2 coat protein for GCACGGAGUGUAGGAUAUUAGUGCGAUUAGCACUGAGAAGGACAUGAGGAUCACCCAUGUUCCUCAUAAAUUAGCCUUCCGUGC [Eli exng1 - 037] (Eterna round: R96, puzzle: Exclusion NG 1) , tested with MS2 coat protein. 27

====

So I've got a bunch of sequences here, and I need their apparent KD of MS2 coat protein values.
- System: MS2 coat protein
- Assay Remarks: apparent KD of MS2 coat protein; designed switch direction (-1 OFF switch, 1 ON switch): -1; higher = weaker reporter binding
- Condition Set: Eterna round: R95; input ligand: microRNA oligo, concentration not stated
Expressed in nM, but write only the number.

Form field: reported apparent KD of MS2 coat protein of UGUGUUUUUGUGAGGAUAUACUGUUUGUUUUGUUUGUAGAAGGUACAUGAGGAUCACCCAUGUUGUGUUUGGUU [JR_BME4_Sub032] (puzzle: Brourd's mod of Exclusion 4) 30.9

Form field: reported apparent KD of MS2 coat protein of AAAGAAGAGAGAAAACAACACAUGAGGAUCACCCAUGUGAGAAGAUGAGGGUGAUACAGGCUAUAUGCUCGUCUUAU (puzzle: Sensor v3, turn-off variant 1) 281

Form field: reported apparent KD of MS2 coat protein of GCCAGAGCAGGAUAUUCAAUAAUUCACAUGAGGAUCACCCAUGUCCAGCGAAAGCUGGAGGGAGAAGGGCUCUGGC [Fiskers Ex 5 - 2] (puzzle: Exclusion 5) 33.4

====

- Tested on: MS2 coat protein
- Assay Remarks: apparent KD of MS2 coat protein; designed switch direction (-1 OFF switch, 1 ON switch): -1; higher = weaker reporter binding
- Condition Set: input ligand: none
Endpoint Name: apparent KD of MS2 coat protein (nM)
Expressed in nM, but write only the number.

Tell me reported apparent KD of MS2 coat protein for UAUUAGCAAGCGAGAUCCUACAUGAGGAUCACCCAUGUGCUCGUCUUGUAAGGUACUGUGACGAAAGUCACGGUACC [Eli 91 v38] (Eterna round: R97, puzzle: Sensor, turn-off variant 1) , tested with MS2 coat protein. 15.6

Tell me reported apparent KD of MS2 coat protein for UCAAUACGGAAGGAUAUGCCGAAGCAUGCGCAGGCAGAAGGUCUGACAUGAGGAUCACCCAUGUUGGAGAUCAA [Eternabot (L2) Solution 21] (Eterna round: R97, puzzle: Exclusion 6) , tested with MS2 coat protein. 19.1

Tell me reported apparent KD of MS2 coat protein for AUGGGUCCUCACGGAGCUACAUGAGGAUCACCCAUGUGGAUUGAGGAUAUCGUAAGCCGACGGCACGAGAAGGCAGUUUACUGU [Ex NG3 #97] (Eterna round: R96, puzzle: Exclusion NG 3) , tested with MS2 coat protein. 23.5

Tell me reported apparent KD of MS2 coat protein for GUAGAGUCAGGAUAUACGAGAUCGAAAGAUCAGUGAUCCUUACAUGAGGAUCACCCAUGUAGAAGGGACUCUAC [Omei mod 8 to Eli's favorate candidate (ch.parushev)] (Eterna round: R97, puzzle: Exclusion 2) , tested with MS2 coat protein. 388
